Ki by entry:
# Target system: C-X-C chemokine receptor type 3 (Homo sapiens, UniProt P49682)
# Sequence (P49682 whole entry): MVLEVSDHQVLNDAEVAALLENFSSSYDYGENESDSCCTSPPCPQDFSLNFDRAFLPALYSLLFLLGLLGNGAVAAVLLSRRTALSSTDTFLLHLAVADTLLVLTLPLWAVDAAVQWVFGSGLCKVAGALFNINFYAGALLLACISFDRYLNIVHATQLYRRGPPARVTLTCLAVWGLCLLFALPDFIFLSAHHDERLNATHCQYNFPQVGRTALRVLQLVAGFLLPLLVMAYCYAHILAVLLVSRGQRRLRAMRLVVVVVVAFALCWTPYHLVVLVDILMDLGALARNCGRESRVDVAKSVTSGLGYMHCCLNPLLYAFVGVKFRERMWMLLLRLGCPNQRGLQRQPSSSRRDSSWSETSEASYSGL
# Assay summary: Displacement of [125I]-CXCL10 from human CXCR3 expressed in HEK293 cells
# Format: cell-based

These recorded examples may help you get a feel for the data.
INSERT INTO measurements (chemical_smiles, target_system, experimental_value) VALUES
  ('CN(CC1=CC[C@H]2C[C@@H]1C2(C)C)Cc1ccc(-c2ccccc2F)cc1', 'C-X-C chemokine receptor type 3 (Homo sapiens, UniProt P49682)', '> 316 nM'),
  ('CC(=O)c1cccc(-c2ccc(CN(C)CC3=CC[C@H]4C[C@@H]3C4(C)C)cc2)c1', 'C-X-C chemokine receptor type 3 (Homo sapiens, UniProt P49682)', '> 316 nM');

QUERY: Would you kindly share the measured Ki for `Cc1cccc(-c2ccc(CN(C)CC3=CC[C@H]4C[C@@H]3C4(C)C)cc2)c1` ?
RESULT: > 316 nM

* * *

# Target system: C-X-C chemokine receptor type 3 (Homo sapiens, UniProt P49682)
# Assay summary: Displacement of [125I]-CXCL10 from human CXCR3 expressed in HEK293 cells
# Format: cell-based
In plain terms, low Ki, meaning strictly below 3000 nM, gives true (1), and everything else gives false (0).

Reference set, count: 3
INSERT INTO results (chemical_smiles, label_value) VALUES
  ('CC(=O)c1cccc(-c2ccc(C[N+](C)(C)CC3=CC[C@H]4C[C@@H]3C4(C)C)cc2)c1', 'true (1)'),
  ('CN(CC1=CC[C@H]2C[C@@H]1C2(C)C)Cc1ccc(-c2cccc([N+](=O)[O-])c2)cc1', 'true (1)'),
  ('CN(CC1=CC[C@H]2C[C@@H]1C2(C)C)Cc1ccccc1I', 'false (0)');

QUERY: Report whether reported Ki is lower than 3000 nM (strictly) for `C[N+](C)(Cc1ccc(I)cc1)CC12CC3CC(CC(C3)C1)C2`
RESULT: true (1)

QUERY: Determine if `CN(CC1=CC[C@H]2C[C@@H]1C2(C)C)Cc1ccc(F)cc1` shows Ki strictly lower than 3000 nM.
RESULT: false (0)

QUERY: In the record for `CC1(C)[C@H]2CC=C(C[N+](C)(C)Cc3ccc(Cl)cc3)[C@@H]1C2` , is Ki less than 3000 nM?
RESULT: true (1)

QUERY: # check: Ki < 3000 nM for `CN(CC1=CC[C@H]2C[C@@H]1C2(C)C)Cc1cccc(I)c1`
RESULT: false (0)

QUERY: Take the molecule `Cn1c2ccccc2c2ccc(C[N+](C)(C)CC3=CC[C@H]4C[C@@H]3C4(C)C)cc21` and say whether its Ki is less than 3000 nM.
RESULT: true (1)

QUERY: Quick check: does `CN(CCc1ccc(Cl)cc1)CC1=CC[C@H]2C[C@@H]1C2(C)C` have Ki under 3000 nM?
RESULT: false (0)

QUERY: Is 3000 nM strictly greater than the molecule's reported Ki? molecule: `CC1(C)[C@H]2CC=C(C[N+](C)(C)CCc3ccc(Cl)cc3)[C@@H]1C2`
RESULT: true (1)

QUERY: Decide: Ki of `CC1(C)[C@H]2CC=C(C[N+](C)(C)Cc3ccc(-c4ccccc4)cc3)[C@@H]1C2` strictly below 3000 nM?
RESULT: true (1)

QUERY: Hi there! Is Ki for `CC1(C)[C@H]2CC=C(C[N+](C)(C)Cc3cccc(-c4ccccc4)c3)[C@@H]1C2` below 3000 nM, do you know?
RESULT: false (0)

QUERY: Please let me know if `CC1(C)[C@H]2CC=C(C[N+](C)(C)Cc3ccc4c(c3)Cc3ccccc3-4)[C@@H]1C2` shows Ki below 3000 nM.
RESULT: true (1)
